Tested on: MCF7 breast
assayText: NCI-60 one-dose screen, 48 h (100 = growth as untreated, 0 = no growth, -100 = all killed)
assayContext: 10 µM
Method: Growth inhibition of the MCF7 human tumor cell line is measured as a screen for anti-cancer activity. Cells are grown in 96 well plates and exposed to the test compound for 48 hours. Compounds are tested at a single concentration, which is 10^-5 M for most compounds. The reported endpoint is percent growth (GI% or GIPRCNT), where numbers from 0 - 100% represent growth inhibition, and numbers from -100% - 0 represent cell death. For example, a value of 40 represents 60% growth inhibition. […]
About 83,000 compounds went through this panel and 20% of them were active in at least one assay; those are over-represented in the sample as a whole.
The molecules listed here are annotated with their growth.
Your answer should be a plain number; it is taken to be in %.

Look over these answered cases.
N/C(=N\O)c1cn(C2OC(CO)C(O)C2O)c2ncnc(N)c12 (stereo not drawn)    -29.9
[O-]c1c[n+](-c2ccc(Cl)cc2)no1    84.9
N#Cc1c2c([nH]c(=O)c1C(N)=O)CCCCC2    103
c1ccc(CNc2nc(Nc3ccc(-c4nc5ccccc5[nH]4)cc3)c3cn[nH]c3n2)cc1    1.71
CC(C)(C)c1ccc(OCCCCCCN2CCNCC2)cc1    17.5

Task: Determine its reported growth: "CC(C)c1ncc(CO)n1Cc1c(Cl)cccc1Cl"
Result: 99.5

Task: Determine its reported growth: "Cc1ccc(C(=O)O)c(N)c1C"
Result: 92.6

Task: Determine its reported growth: "CS(=O)(=O)Nc1ccc(OCc2nnc(-c3ccc(Cl)cc3)o2)c(F)c1"
Result: 81.7
